test: Compound stability in rat liver microsomes; format: in vitro ADME; conditions: pH 7.4, 0.5 mg protein/mL, NADPH, 37° C.
Quantity name: half-life (h)

INSERT INTO measurements (compound_string, quantity_name, display_unit, experimental_result) VALUES
  ('O=C(Nc1ccc(Oc2ccnc(NC(=O)C3CC3)c2)cc1)c1c2n(n(-c3ccccc3)c1=O)CCC2', 'half-life', 'h', 3.19),
  ('O=C(Nc1ccc(Oc2ccnc(NC(=O)C3CC3)c2)cc1)c1c2n(n(-c3ccccc3)c1=O)CCOC2', 'half-life', 'h', 2.87),
  ('CC(=O)Nc1cc(Oc2ccc(NC(=O)c3c4n(n(-c5ccccc5)c3=O)CCC4)cc2)ccn1', 'half-life', 'h', 5.7),
  ('O=C(Nc1ccc(Oc2ccnc(NC(=O)C3CC3)c2)cn1)c1c2n(n(-c3ccccc3)c1=O)CCC2', 'half-life', 'h', 3.32),
  ('Nc1cc(Oc2ccc(NC(=O)c3c4n(n(-c5ccccc5)c3=O)CCC4)cc2)ccn1', 'half-life', 'h', 1.48),
  ('CC(=O)Nc1cc(Oc2ccc(NC(=O)c3c4n(n(-c5ccccc5)c3=O)CCOC4)nc2)ccn1', 'half-life', 'h', 16.6);
